- measured.target: Amine oxidase [flavin-containing] A (Homo sapiens); also: assay procedure not described here
- Sequence (P21397 whole entry): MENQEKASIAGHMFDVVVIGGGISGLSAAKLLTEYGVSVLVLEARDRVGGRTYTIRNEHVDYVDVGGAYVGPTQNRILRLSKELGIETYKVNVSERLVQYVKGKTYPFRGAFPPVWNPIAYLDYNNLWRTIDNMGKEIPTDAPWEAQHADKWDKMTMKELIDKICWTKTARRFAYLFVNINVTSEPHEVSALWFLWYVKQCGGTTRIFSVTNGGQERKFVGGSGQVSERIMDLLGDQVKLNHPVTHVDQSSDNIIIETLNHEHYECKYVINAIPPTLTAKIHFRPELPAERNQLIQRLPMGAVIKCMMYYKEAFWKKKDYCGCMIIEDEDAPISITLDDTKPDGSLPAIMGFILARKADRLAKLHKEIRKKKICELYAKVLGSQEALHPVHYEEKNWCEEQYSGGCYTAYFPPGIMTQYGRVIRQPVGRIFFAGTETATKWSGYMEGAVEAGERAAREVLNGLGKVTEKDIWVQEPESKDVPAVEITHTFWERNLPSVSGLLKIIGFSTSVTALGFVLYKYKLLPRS
- Format: functional
readout.name: AC50

Some solved entries appear below for comparison.
• CC(=O)O[C@]1(C(C)=O)CC[C@H]2[C@@H]3C=C(C)C4=CC(=O)CC[C@@H]4[C@H]3CC[C@@]21C [NOMEGESTROL ACETATE] = > 30 µM
• CC(N)C12CC3CC(CC(C3)C1)C2 (stereo not given) [RIMANTADINE] = > 10 µM
• OCc1cc(C(O)CNCCCCCCOCCCCc2ccccc2)ccc1O (stereo not given) [SALMETEROL] = > 10 µM
• NC(=O)CN1CCCC1=O = > 30 µM

Kindly consider the entry below.
### Prompt Need AC50 of Cc1ncc2n1-c1ccc(Cl)cc1C(c1ccccc1F)=NC2 [MIDAZOLAM] , thanks.
### Response > 10 µM
